src = ChEMBL document CHEMBL5380875

test: Tmax in ICR mouse at 10 mg/kg, po measured for 24 hrs by LC-MS/MS analysis; assay type: ADME, organism-based; details: in vivo
metric-name: Tmax (h)
# value in h; strip the unit string

Query: Recorded Tmax for Cc1c(C(=O)N2CCN(Cc3ccc(OCC(F)(F)F)cc3)CC2)nnn1Cc1ccc(C(=O)Nc2ccc(C(F)(F)F)cc2)nc1 , please?
Reply: 1

* * *

test: AUC (0 to infinity) in ICR mouse at 1 mg/kg, iv measured for 24 hrs by LC-MS/MS analysis; format: ADME, organism-based; parameters: dose 1 mg/kg, time 24 hrs, route iv; details: in vivo
metric-name: AUC(0-inf) (ng·h/mL)
# value in ng·h/mL; strip the unit string

Query: Recorded AUC(0-inf) for Cc1c(C(=O)N2CCN(Cc3ccc(OCC(F)(F)F)cc3)CC2)nnn1Cc1ccc(C(=O)Nc2ccc(C(F)(F)F)cc2)nc1 , please?
Reply: 359

* * *

assay: Oral bioavailability in ICR mouse at 10 mg/kg measured for 24 hrs by LC-MS/MS analysis; format: ADME, organism-based; conditions: in vivo
metric-name: bioavailability (%)
# value in %; strip the unit string

Query: Recorded bioavailability for Cc1c(C(=O)N2CCN(Cc3ccc(OCC(F)(F)F)cc3)CC2)nnn1Cc1ccc(C(=O)Nc2ccc(C(F)(F)F)cc2)nc1 , please?
Reply: 64.3

* * *

tested on: NCI-H460; test: Antiproliferative activity against human NCI-H460 cells with high-OXPHOS assessed as reduction in cell viability incubated for 5 days by CellTiter 96 cell proliferation assay; type: functional, cell-based; settings: NCI-H460, 120 h
metric-name: IC50 (nM)
# value in nM; strip the unit string

Cc1c(C(=O)N2CCN(Cc3ccc(OCC(F)(F)F)cc3)CC2)nnn1Cc1ccc(C(=O)Nc2cccc(C(F)(F)F)c2)nc1 257

Query: Recorded IC50 for O=C(Nc1ccc(C(F)(F)F)cc1)c1ccc(Cn2cc(C(=O)N3CCN(Cc4ccc(OCC(F)(F)F)cc4)CC3)nn2)cn1 , please?
Reply: 10.6

Query: Recorded IC50 for Cc1c(C(=O)N2CCN(Cc3ccc(OCC(F)(F)F)cc3)CC2)nnn1Cc1ccc(C(=O)Nc2ccc(C(F)(F)F)cc2)nc1 , please?
Reply: 5

Query: Recorded IC50 for O=C(Nc1ccc(C(F)(F)F)cc1)c1ccc(Cn2nnc(C(=O)N3CCN(Cc4ccc(OCC(F)(F)F)cc4)CC3)c2C(F)(F)F)cn1 , please?
Reply: 3.8

Query: Recorded IC50 for Cc1c(C(=O)N2CCN(Cc3ccc(OCC(F)(F)F)cc3)CC2)nnn1Cc1ccc(C(=O)Nc2ccc3ccccc3c2)nc1 , please?
Reply: 25.6

* * *

experiment: AUC (0 to infinity) in ICR mouse at 10 mg/kg, po measured for 24 hrs by LC-MS/MS analysis; format: ADME, organism-based; parameters: dose 10 mg/kg, time 24 hrs, route po; settings: in vivo
metric-name: AUC(0-inf) (ng·h/mL)
# value in ng·h/mL; strip the unit string

Query: Recorded AUC(0-inf) for Cc1c(C(=O)N2CCN(Cc3ccc(OCC(F)(F)F)cc3)CC2)nnn1Cc1ccc(C(=O)Nc2ccc(C(F)(F)F)cc2)nc1 , please?
Reply: 2300

* * *

assay: Apparent volume of distribution in ICR mouse at 1 mg/kg, iv measured for 24 hrs by LC-MS/MS analysis; format: ADME, organism-based; conditions: in vivo, read-out: Vz
metric-name: Vd (L/kg)
# value in L/kg; strip the unit string

Query: Recorded Vd for Cc1c(C(=O)N2CCN(Cc3ccc(OCC(F)(F)F)cc3)CC2)nnn1Cc1ccc(C(=O)Nc2ccc(C(F)(F)F)cc2)nc1 , please?
Reply: 9.34

* * *

assay: Half life in ICR mouse at 1 mg/kg, iv measured for 24 hrs by LC-MS/MS analysis; assay type: ADME, organism-based; details: in vivo
metric-name: half-life (h)
# value in h; strip the unit string

Query: Recorded half-life for Cc1c(C(=O)N2CCN(Cc3ccc(OCC(F)(F)F)cc3)CC2)nnn1Cc1ccc(C(=O)Nc2ccc(C(F)(F)F)cc2)nc1 , please?
Reply: 2.3

* * *

experiment: MRT (0 to 24 hrs) in ICR mouse at 10 mg/kg, po measured for 24 hrs by LC-MS/MS analysis; assay type: ADME, organism-based; conditions: in vivo
metric-name: MRT last at 24 h (h)
# value in h; strip the unit string

Query: Recorded MRT last at 24 h for Cc1c(C(=O)N2CCN(Cc3ccc(OCC(F)(F)F)cc3)CC2)nnn1Cc1ccc(C(=O)Nc2ccc(C(F)(F)F)cc2)nc1 , please?
Reply: 3

* * *

test: Tmax in ICR mouse at 1 mg/kg, iv measured for 24 hrs by LC-MS/MS analysis; format: ADME, organism-based; details: in vivo
metric-name: Tmax (min)
# value in min; strip the unit string

Query: Recorded Tmax for Cc1c(C(=O)N2CCN(Cc3ccc(OCC(F)(F)F)cc3)CC2)nnn1Cc1ccc(C(=O)Nc2ccc(C(F)(F)F)cc2)nc1 , please?
Reply: 4.8

* * *

test: MRT (0 to 24 hrs) in ICR mouse at 1 mg/kg, iv measured for 24 hrs by LC-MS/MS analysis; assay type: ADME, organism-based; conditions: in vivo
metric-name: MRT last at 24 h (h)
# value in h; strip the unit string

Query: Recorded MRT last at 24 h for Cc1c(C(=O)N2CCN(Cc3ccc(OCC(F)(F)F)cc3)CC2)nnn1Cc1ccc(C(=O)Nc2ccc(C(F)(F)F)cc2)nc1 , please?
Reply: 1.5

* * *

target: Cytochrome P450 2C9 (Homo sapiens, UniProt P11712)
Sequence (P11712 whole entry): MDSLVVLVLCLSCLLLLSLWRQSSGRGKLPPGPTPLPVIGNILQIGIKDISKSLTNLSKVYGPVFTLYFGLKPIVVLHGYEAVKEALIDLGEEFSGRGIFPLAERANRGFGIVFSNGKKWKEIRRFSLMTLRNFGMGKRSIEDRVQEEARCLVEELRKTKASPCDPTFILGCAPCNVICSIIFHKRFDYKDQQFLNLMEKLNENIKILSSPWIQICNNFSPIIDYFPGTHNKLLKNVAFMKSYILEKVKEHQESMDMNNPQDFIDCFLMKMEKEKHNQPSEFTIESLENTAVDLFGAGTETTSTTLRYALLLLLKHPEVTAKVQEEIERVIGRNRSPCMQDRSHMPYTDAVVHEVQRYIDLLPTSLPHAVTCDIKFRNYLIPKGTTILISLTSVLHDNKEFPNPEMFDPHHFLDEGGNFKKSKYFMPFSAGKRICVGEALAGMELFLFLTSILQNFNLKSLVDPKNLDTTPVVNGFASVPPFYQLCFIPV
metric-name: IC50 (µM)
# value in µM; strip the unit string

Query: What is its IC50 for Cytochrome P450 2C9 (Homo sapiens, UniProt P11712)? Entry: Cc1c(C(=O)N2CCN(Cc3ccc(OCC(F)(F)F)cc3)CC2)nnn1Cc1ccc(C(=O)Nc2ccc(C(F)(F)F)cc2)nc1
Reply: 14.6

* * *

test: Cytotoxicity against human MRC5 cells assessed as reduction in cell viability incubated for 5 days by CellTiter 96 cell proliferation assay; format: toxicity, cell-based
metric-name: IC50 at 5 days

Query: Recorded IC50 at 5 days for Cc1c(C(=O)N2CCN(Cc3ccc(OCC(F)(F)F)cc3)CC2)nnn1Cc1ccc(C(=O)Nc2ccc(C(F)(F)F)cc2)nc1 , please?
Reply: > 10 µM

* * *

assay: Cmax in ICR mouse at 10 mg/kg, po measured for 24 hrs by LC-MS/MS analysis; format: ADME, organism-based; parameters: time 24 hrs, dose 10 mg/kg, route po; settings: in vivo
metric-name: Cmax (ng/mL)
# value in ng/mL; strip the unit string

Query: Recorded Cmax for Cc1c(C(=O)N2CCN(Cc3ccc(OCC(F)(F)F)cc3)CC2)nnn1Cc1ccc(C(=O)Nc2ccc(C(F)(F)F)cc2)nc1 , please?
Reply: 618

* * *

system: NCI-H460; assay: Antiproliferative activity against human NCI-H460 cells with high-OXPHOS assessed as reduction in cell viability incubated for 5 days by CellTiter 96 cell proliferation assay; type: functional, cell-based; conditions: NCI-H460, 120 h
metric-name: IC50 (nM)
# value in nM; strip the unit string

// worked examples, IC50 included
Cc1c(C(=O)N2CCN(Cc3ccc(OCC(F)(F)F)cc3)CC2)nnn1Cc1ccc(C(=O)Nc2ccc(OC(F)(F)F)cc2)nc1 6.3
Cc1c(C(=O)N2CCN(Cc3ccc(C(C)(C)C)cc3)CC2)nnn1Cc1ccc(C(=O)Nc2ccc(C(F)(F)F)cc2)nc1 7.8
Cc1c(C(=O)N2CCN(Cc3ccc(OCC(F)(F)F)cc3)CC2)nnn1Cc1ccc(C(=O)Nc2ccc(Br)cc2)nc1 5.5
Cc1c(C(=O)N2CCN(Cc3ccc(OCC(F)(F)F)cc3)CC2)nnn1Cc1ccc(C(=O)Nc2ccc(F)cc2)nc1 11.7

Here's the next entry for you.
Query: Recorded IC50 for Cc1c(C(=O)N2CCN(Cc3ccc(OCC(F)(F)F)cc3)CC2)nnn1Cc1ccc(C(=O)Nc2ccc(Cl)cc2)nc1 , please?
Reply: 7.6
